Recorded measurements of microsomal CLint at 1 uM, one per entry
test: Metabolic stability in human hepatic microsome; assay type: in vitro ADME; settings: microsomes, pH 7.4; human hepatic microsome, NADPH(+); read-out: CL NADPH(+)
Starred links: 1 amine or outer side, 2 acyl side, 3 side chain; linkers in the order of their positions; H or OH if unused. Positions of bridges follow the written chain, without caps; N, C: chain ends. Non-standard residues stand in square brackets, D forms with d. Residues, ends and D or L forms follow the SMILES beside them. *: point of attachment. Phe(3-(CH2)4CO) = O=C([C@H](Cc1cccc(CCCCC(=O)[*:3])c1)N[*:1])[*:2]; Phe(4-CF3) = N[C@@H](Cc1ccc(C(F)(F)F)cc1)C(=O)O; NMePhe(3-Cl) = CN[C@@H](Cc1cccc(Cl)c1)C(=O)O; hhPhe = N[C@@H](CCCc1ccccc1)C(=O)O; NMeF = CN[C@@H](Cc1ccccc1)C(=O)O; NMeβAla = CN(CCC(=O)[*:2])[*:1]; NMeL = CN[C@@H](CC(C)C)C(=O)O; NMeV = CN[C@H](C(=O)O)C(C)C; NMeA = CN[C@@H](C)C(=O)O; Piperidide = C1CCN(*)CC1; dNMeA = CN[C@H](C)C(=O)O; β3hA = C[C@H](N)CC(=O)O; Sar = CNCC(=O)O; tBu = CC(C)(C)*

{"COMPOUND": "CC[C@H](C)[C@@H]1NC(=O)[C@H](Cc2ccccc2)N(C)C(=O)[C@H](CCCc2ccccc2)NC(=O)[C@H](C(C)C)N(C)C(=O)[C@H](CC(C)C)N(C)C(=O)[C@H](CC(C)C)NC(=O)[C@@H](C)NC(=O)C[C@@H](C(=O)N2CCCCC2)NC(=O)[C@H]([C@@H](C)O)NC(=O)[C@H](C)NC(=O)[C@H](C)N(C)C1=O [DP-731] ([dA]L[NMeL][NMeV][hhPhe][NMeF]I[NMeA]ATD-Piperidide; lactam N-11)", "READOUT TYPE": "microsomal CLint at 1 uM", "OBSERVED": "53 µL/min/mg"}
{"COMPOUND": "CC(C)C[C@H]1C(=O)N(C)[C@@H](Cc2ccccc2)C(=O)N[C@H](C(=O)N2CCCCC2)CC(=O)N(C)[C@H](C)C(=O)N[C@@H]([C@@H](C)O)C(=O)N(C)[C@@H](C)C(=O)N(C)[C@@H](Cc2ccccc2)C(=O)N[C@@H](COC(C)(C)C)C(=O)NCC(=O)N1C [DP-270] ([dNMeA]T[NMeA][NMeF]S(tBu)G[NMeL][NMeF]D-Piperidide; lactam N-9)", "READOUT TYPE": "microsomal CLint at 1 uM", "OBSERVED": "79 µL/min/mg"}
{"COMPOUND": "CC(C)C[C@@H]1NC(=O)[C@H](CC(C)C)N(C)C(=O)[C@H](C)NC(=O)[C@H](C(C)C)N(C)C(=O)CN(C)C(=O)[C@H]([C@@H](C)O)NC(=O)[C@H](C)N(C)C(=O)[C@H](CC(C)C)N(C)C(=O)[C@@H](C)NC(=O)C[C@H](C)NC1=O [DP-818] (cyclo(A[NMeL]L[β3hA][dA][NMeL][NMeA]T[Sar][NMeV]))", "READOUT TYPE": "microsomal CLint at 1 uM", "OBSERVED": "1 µL/min/mg"}
{"COMPOUND": "CC(C)C[C@H]1C(=O)N(C)[C@@H](C)C(=O)N[C@@H]([C@@H](C)O)C(=O)N(C)[C@@H](C)C(=O)N(C)[C@@H](Cc2ccccc2)C(=O)N(C)[C@@H](C)C(=O)N[C@@H](C)C(=O)N(C)[C@@H](C)C(=O)N(C)[C@@H](C)C(=O)N[C@H](C(=O)N(C)[C@@H](Cc2ccccc2)C(=O)N[C@@H](C)C(=O)N2CCCCC2)CC(=O)N(C)[C@H](C)C(=O)N1C [DP-444] ([dNMeA][NMeL][NMeA]T[NMeA][NMeF][NMeA]A[NMeA][NMeA]D[NMeF]A-Piperidide; lactam N-11)", "READOUT TYPE": "microsomal CLint at 1 uM", "OBSERVED": "3 µL/min/mg"}
{"COMPOUND": "CC(C)C[C@@H]1NC(=O)[C@H](C)N(C)C(=O)C[C@@H](C(=O)N2CCCCC2)NC(=O)[C@H](Cc2ccccc2)N(C)C(=O)[C@H](CC(C)C)N(C)C(=O)CN(C)C(=O)[C@H]([C@@H](C)O)NC(=O)[C@H](C)N(C)C(=O)[C@H](C(C)C)N(C)C(=O)[C@H](C)NC(=O)[C@H](CC(C)C)N(C)C(=O)[C@H](Cc2ccccc2)N(C)C1=O [DP-133] ([NMeA]L[NMeF][NMeL]A[NMeV][NMeA]T[Sar][NMeL][NMeF]D-Piperidide; lactam N-12)", "READOUT TYPE": "microsomal CLint at 1 uM", "OBSERVED": "51 µL/min/mg"}
{"COMPOUND": "CC[C@H](C)[C@@H]1NC(=O)[C@H](Cc2ccccc2)N(C)C(=O)[C@H](Cc2ccccc2)NC(=O)[C@H](CC(C)C)N(C)C(=O)[C@H](C(C)C)NC(=O)[C@H](CC(C)C)NC(=O)[C@H](C)N(C)C(=O)CNC(=O)[C@H](C)NC(=O)C[C@@H](C(=O)N2CCCCC2)NC(=O)[C@H]([C@@H](C)O)NC(=O)[C@H](CC(C)C)NC(=O)[C@H](C)N(C)C1=O [DP-83] (AG[NMeA]LV[NMeL]F[NMeF]I[NMeA]LTD-Piperidide; lactam N-13)", "READOUT TYPE": "microsomal CLint at 1 uM", "OBSERVED": "39 µL/min/mg"}
{"COMPOUND": "CC[C@H](C)[C@@H]1NC(=O)[C@H](CC(C)C)N(C)C(=O)[C@H](Cc2ccccc2)N(C)C(=O)CCCCc2cccc(c2)C[C@@H](C(=O)N2CCCCC2)NC(=O)[C@H](CC(C)C)N(C)C(=O)[C@H](C)N(C)C(=O)[C@H]([C@@H](C)O)NC(=O)[C@H](Cc2ccccc2)N(C)C(=O)[C@H](C)N(C)C1=O [DP-836] ([NMeF][NMeL]I[NMeA][NMeF]T[NMeA][NMeL][Phe(3-(CH2)4CO)]-Piperidide; lactam N-9)", "READOUT TYPE": "microsomal CLint at 1 uM", "OBSERVED": "552 µL/min/mg"}
{"COMPOUND": "CC(C)C[C@H]1C(=O)N(C)[C@@H](C)C(=O)N(C)[C@@H](CC(C)C)C(=O)N[C@H](C(=O)N2CCCCC2)CC(=O)N(C)[C@H](C)C(=O)N(C)[C@@H](Cc2ccccc2)C(=O)N[C@@H]([C@@H](C)O)C(=O)N(C)[C@@H](C)C(=O)N(C)[C@@H](CC(C)C)C(=O)NCC(=O)N1C [DP-435] ([dNMeA][NMeF]T[NMeA][NMeL]G[NMeL][NMeA][NMeL]D-Piperidide; lactam N-10)", "READOUT TYPE": "microsomal CLint at 1 uM", "OBSERVED": "41 µL/min/mg"}

May I ask what microsomal CLint at 1 uM has been recorded for CC(C)C[C@@H]1NC(=O)[C@@H](C(C)C)NC(=O)C[C@H](C)NC(=O)[C@H](CC(C)C)N(C)C(=O)[C@H](Cc2cccc(Cl)c2)N(C)C(=O)[C@H](CC(C)C)N(C)C(=O)[C@H](Cc2ccc(C(F)(F)F)cc2)NC(=O)[C@H](C)N(C)C(=O)[C@H]([C@@H](C)O)NC1=O [DP-792] (cyclo(LT[NMeA][Phe(4-CF3)][NMeL][NMePhe(3-Cl)][NMeL][β3hA][dV])) ?
16 µL/min/mg

Look up microsomal CLint at 1 uM: CC(C)C[C@@H]1NC(=O)[C@H](C(C)C)NC(=O)[C@H](Cc2ccccc2)NC(=O)CCN(C)C(=O)C[C@@H](C(=O)N2CCCCC2)NC(=O)[C@H](CC(C)C)N(C)C(=O)[C@H](CC(C)C)NC(=O)[C@H](C(C)C)N(C)C(=O)[C@H](CC(C)C)NC(=O)[C@H]([C@@H](C)O)NC(=O)CN(C)C1=O [DP-472] ([NMeβAla]FVL[Sar]TL[NMeV]L[NMeL]D-Piperidide; lactam N-11)
52 µL/min/mg

====

assay: PAMPA (parallel artificial membrane permeability assay); assay type: in vitro ADME; settings: PAMPA; membrane permeation rate (Pe); 50 mM MOPSO buffer pH 6.5 with 5.0% glycocholic acid, 37° C., 18 hours; read-out: iPAMPA Pe
Starred links: 1 amine or outer side, 2 acyl side, 3 side chain; linkers in the order of their positions; H or OH if unused. Positions of bridges follow the written chain, without caps; N, C: chain ends. Non-standard residues stand in square brackets, D forms with d. Residues, ends and D or L forms follow the SMILES beside them. *: point of attachment. Phe(4-(CH2)5CO) = O=C([C@H](Cc1ccc(CCCCCC(=O)[*:3])cc1)N[*:1])[*:2]; NMeF = CN[C@@H](Cc1ccccc1)C(=O)O; NMeI = CC[C@H](C)[C@H](NC)C(=O)O; NMeL = CN[C@@H](CC(C)C)C(=O)O; Piperidide = C1CCN(*)CC1; Sar = CNCC(=O)O
# cutoff 20 ×10⁻⁶ cm/s applies to Papp at 18 hours, 50 µM; >= gives 1.0, < gives 0.0

Textbook exercise: given the entry CC[C@H](C)[C@H]1C(=O)N[C@@H]([C@@H](C)O)C(=O)N(C)CC(=O)N(C)[C@@H](CC(C)C)C(=O)N[C@H](C(=O)N2CCCCC2)Cc2ccc(cc2)CCCCCC(=O)N[C@@H](CC(C)C)C(=O)N(C)[C@@H](CC(C)C)C(=O)N(C)[C@@H](Cc2ccccc2)C(=O)N[C@@H](C)C(=O)N(C)[C@@H](Cc2ccccc2)C(=O)N1C [DP-856] (L[NMeL][NMeF]A[NMeF][NMeI]T[Sar][NMeL][Phe(4-(CH2)5CO)]-Piperidide; lactam N-10) , state whether its Papp at 18 hours, 50 µM is greater than or equal to 20 ×10⁻⁶ cm/s.
0.0
